# ASSAY_SUMMARY: basal HepG2 mitochondrial membrane potential changes, profiling panel, cell-based, JC-1 fluorescence, 24 h, 100 nL compound (AID 1167); further: test concentration not given here
# CONDITION_SET: higher = more signal
METRIC_NAME: z-score

MOLECULE: COc1ccc(C(O)C2C=CC3C(=O)N(c4ccccc4)C(=O)C3N2Nc2ccc(C(C)C)cc2)c2ccccc12 (stereo not drawn)
ENDPOINT_VALUE: -0.783

MOLECULE: CCOC(=O)C=Cc1ccccc1O
ENDPOINT_VALUE: -0.503

MOLECULE: COC(=O)[C@@]1(Cc2ccccc2)[C@H]2c3cc(C(=O)N4CCCC4)n(CCSCCO)c3C[C@H]2CN1C(=O)c1ccccc1
ENDPOINT_VALUE: 0.59

MOLECULE: COc1ccc(C#Cc2ccc3c(c2)[C@]2(C(=O)N3)[C@H](c3ccc(OCCO)cc3)N3[C@H](c4ccccc4)[C@H](c4ccccc4)OC(=O)[C@H]3[C@@H]2C(=O)N2CCc3cc(OC)c(OC)cc3C2)cc1
ENDPOINT_VALUE: 0.37

MOLECULE: Cc1ccc(N2C(=O)c3ccccc3[C@](C)(C(=O)NCc3ccccc3)[C@@H]2c2ccc(CO)cc2)nc1
ENDPOINT_VALUE: 0.191

Need z-score of CCCCCN1CC=CC23O[C@@H]4/C=C\CCC(C)OC(=O)C4[C@H]2C(=O)N(CCCCCCO)[C@@H]3C1=O (stereo partly drawn) , thanks.
0.589

Let us now turn to `[N-]=[N+]=NCc1ccccc1[C@@H]1OC(c2ccc(OCCCO)cc2)=N[C@]1(Cc1ccccc1)C(=O)NCCN1CCOCC1`
1.14

Let us now turn to `CCCNC(=O)[C@@]1(C)c2ccccc2C(=O)N(Cc2ccccc2)[C@H]1c1ccc(CO)cc1`
4.13
